- System: P. vulgatus RND KO
- test.name: growth AUC normalised to DMSO control (median) (fraction of control); higher = less growth inhibition, active = hit call of the paper;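 also: active when median AUC fell below 0.1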
- test.conditions: 20 µM
Where a name gives a salt, the structure may show the parent alone.
// label 0 strictly below 1 in growth AUC normalised to DMSO control; label 1 otherwise

{"columns": ["compound", "label.class"],
 "data": [
  ["Clc1ccc(Cn2c(CN3CCCC3)nc3ccccc32)cc1 [Clemizole hydrochloride]", "label 0"],
  ["COC(=O)[C@H]1[C@H]2C[C@@H]3c4[nH]c5cc(OC)ccc5c4CCN3C[C@H]2C[C@@H](OC(=O)c2cc(OC)c(OC)c(OC)c2)[C@@H]1OC [Reserpine]", "label 1"],
  ["Cc1cc(C(=O)NNCc2ccccc2)no1 [Isocarboxazid]", "label 1"],
  ["O=C(OCCOCCO)c1ccccc1Nc1cccc(C(F)(F)F)c1 [Etofenamate]", "label 0"],
  ["Cn1cnc([N+](=O)[O-])c1Sc1ncnc2[nH]cnc12 [Azathioprine]", "label 0"]
]}

###

- System: S. enterica typhimurium WT
- test.name: growth AUC normalised to DMSO control (median) (fraction of control); higher = less growth inhibition, active = hit call of the paper
- test.conditions: 20 µM
Structures can show the parent of a compound that is named as a salt.
growth AUC normalised to DMSO control for assorted compounds
value.type: growth AUC normalised to DMSO control

{"columns": ["compound", "value.type", "meas.value"],
 "data": [
  ["c1ccc(CNc2ncnc3nc[nH]c23)cc1", "growth AUC normalised to DMSO control", 1],
  ["COCCCOc1cc(C[C@@H](C[C@H](N)[C@@H](O)C[C@H](C(=O)NCC(C)(C)C(N)=O)C(C)C)C(C)C)ccc1OC [Aliskiren hemifumarate]", "growth AUC normalised to DMSO control", 0.997],
  ["CC[C@H]1OC(=O)C[C@@H](O)[C@H](C)[C@@H](O[C@@H]2O[C@H](C)[C@@H](O[C@H]3C[C@@](C)(O)[C@@H](O)[C@H](C)O3)[C@H](N(C)C)[C@H]2O)[C@@H](CC=O)C[C@@H](C)C(=O)/C=C/C(C)=C/[C@@H]1CO[C@@H]1O[C@H](C)[C@@H](O)[C@@H](OC)[C@H]1OC", "growth AUC normalised to DMSO control", 0.997],
  ["CCC(=O)OCC(=O)[C@@]1(OC(=O)CC)[C@H](C)C[C@H]2[C@H]3[C@H]([C@@H](O)C[C@@]21C)[C@@]1(C)C=CC(=O)C=C1C[C@H]3Cl [Alclometasone dipropionate]", "growth AUC normalised to DMSO control", 1],
  ["CCCCOCCOCCOCc1cc2c(cc1CCC)OCO2 [Piperonyl butoxide]", "growth AUC normalised to DMSO control", 1.02],
  ["CSc1ccc2c(c1)N(CCC1CCCCN1C)c1ccccc1S2 (centres undefined) [Thioridazine hydrochloride]", "growth AUC normalised to DMSO control", 0.99],
  ["COc1ccc2cc1Oc1ccc(cc1)C[C@H]1c3c(cc4c(c3Oc3cc5c(cc3OC)CCN(C)[C@@H]5C2)OCO4)CCN1C", "growth AUC normalised to DMSO control", 1.02],
  ["CNCC(O)c1ccc(OC(=O)C(C)(C)C)c(OC(=O)C(C)(C)C)c1 (centres undefined) [Dipivefrin hydrochloride]", "growth AUC normalised to DMSO control", 1.02],
  ["COCC(=O)Nc1c(I)c(C(=O)NCC(O)CO)c(I)c(C(=O)N(C)CC(O)CO)c1I (centres undefined) [Iopromide]", "growth AUC normalised to DMSO control", 1.02],
  ["NC(=O)NS(=O)(=O)c1ccc(N)cc1 [Sulfacarbamide]", "growth AUC normalised to DMSO control", 0.995],
  ["COCCOC(=O)C1=C(C)NC(C)=C(C(=O)OC(C)C)C1c1cccc([N+](=O)[O-])c1 (centres undefined)", "growth AUC normalised to DMSO control", 0.991],
  ["CC(C)NCC(O)c1ccc(O)c(O)c1 (single isomer, unassigned; (+)) [(+) Isoproterenol-(+)-bitartrate salt]", "growth AUC normalised to DMSO control", 1.01],
  ["CC(CCc1ccc(O)cc1)NCCc1ccc(O)c(O)c1 (centres undefined) [Dobutamine hydrochloride]", "growth AUC normalised to DMSO control", 1.01],
  ["CC(C(O)c1ccc(O)cc1)N1CCC(Cc2ccccc2)CC1 (centres undefined) [Ifenprodil tartrate]", "growth AUC normalised to DMSO control", 1.01]
]}
